Origin of values: the supplement of paper PMC10567573

B1: GLTSCR2 (parent)
chain: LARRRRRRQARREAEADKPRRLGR

Variants of: B1
assay-details: protein stability index of a GFP-peptide fusion (GPS, HEK-293T) (PSI 1-6); higher = more stable;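 note: lentivirally expressed fusions sorted by FACS into six bins by GFP to DsRed ratio, PSI derived from sequencing read proportions per bin multiplied by bin number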
assay-setup: c terminus: a fixed tail appended
I'd appreciate it if you could supply protein stability index values for the items below.
One number for each entry.

1. E13D : 4.61

// each variant listed below needs its protein stability index
1. A16Y
2. A16F

1: 4.61; 2: 4.4
